target: T1, human IL-13 (recombinant E. coli-expressed) (human, UniProt P35225 35-146); experiment: Biacore T100 SPR, purified mAb captured on anti-human IgG, IL13 analyte, 1:1 fit
T1 construct: also called hIL-13
T1 sequence (P35225 other isoform, or with tags, fused parts or gaps limits assumed): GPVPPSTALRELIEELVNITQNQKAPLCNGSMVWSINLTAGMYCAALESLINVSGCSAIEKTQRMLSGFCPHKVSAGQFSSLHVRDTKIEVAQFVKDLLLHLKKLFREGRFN
Listed here are binders together with their documented Kd.

Observe how each entry below is paired with its result.
A1Y100B TrpL1 (antibody, human IgG1, kappa, V domains shown, CDRH3 variant of A1L1) VH: QVQLVQSGAEVKKPGSSVKVSCKASGFYIKDTYMHWVRQAPGQGLEWMGTIDPANGNTKYVPKFQGRVTITADESTSTAYMELSSLRSEDTAVYYCARSIYDDYHWDDYYAMDYWGQGTLVTVSS VL: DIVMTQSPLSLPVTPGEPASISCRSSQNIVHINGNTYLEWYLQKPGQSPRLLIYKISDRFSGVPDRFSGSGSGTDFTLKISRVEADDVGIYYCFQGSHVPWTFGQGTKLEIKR    0.053 nM
A1Y100B IleL1 (antibody, human IgG1, kappa, V domains shown, CDRH3 variant of A1L1) VH: QVQLVQSGAEVKKPGSSVKVSCKASGFYIKDTYMHWVRQAPGQGLEWMGTIDPANGNTKYVPKFQGRVTITADESTSTAYMELSSLRSEDTAVYYCARSIYDDYHIDDYYAMDYWGQGTLVTVSS VL: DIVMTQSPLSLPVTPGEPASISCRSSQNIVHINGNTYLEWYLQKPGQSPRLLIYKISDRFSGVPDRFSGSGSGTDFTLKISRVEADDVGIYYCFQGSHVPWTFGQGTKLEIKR    0.043 nM
A1L1 (antibody, human IgG1, kappa, V domains shown, Humanised version of murine 6A1, human IgG1 kappa; also called parental; 586 (mAb)) VH: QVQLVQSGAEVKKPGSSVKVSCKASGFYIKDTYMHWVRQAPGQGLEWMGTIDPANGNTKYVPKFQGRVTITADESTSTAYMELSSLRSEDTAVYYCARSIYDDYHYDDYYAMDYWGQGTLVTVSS VL: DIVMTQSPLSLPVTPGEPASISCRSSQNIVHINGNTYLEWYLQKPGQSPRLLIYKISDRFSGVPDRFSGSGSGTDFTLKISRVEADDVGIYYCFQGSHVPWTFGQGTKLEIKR    0.326 nM
A1Y100B ValL1 (antibody, human IgG1, kappa, V domains shown, CDRH3 variant of A1L1; also called A1Y100BVAL1; 829 (mAb)) VH: QVQLVQSGAEVKKPGSSVKVSCKASGFYIKDTYMHWVRQAPGQGLEWMGTIDPANGNTKYVPKFQGRVTITADESTSTAYMELSSLRSEDTAVYYCARSIYDDYHVDDYYAMDYWGQGTLVTVSS VL: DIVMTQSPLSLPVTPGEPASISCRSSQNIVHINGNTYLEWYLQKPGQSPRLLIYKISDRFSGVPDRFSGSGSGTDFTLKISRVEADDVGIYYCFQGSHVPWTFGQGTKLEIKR    0.027 nM

Attention now shifts to the item below.
In: Bench note: what Kd did A1Y100B AlaL1 (antibody, human IgG1, kappa, V domains shown, CDRH3 variant of A1L1) VH: QVQLVQSGAEVKKPGSSVKVSCKASGFYIKDTYMHWVRQAPGQGLEWMGTIDPANGNTKYVPKFQGRVTITADESTSTAYMELSSLRSEDTAVYYCARSIYDDYHADDYYAMDYWGQGTLVTVSS VL: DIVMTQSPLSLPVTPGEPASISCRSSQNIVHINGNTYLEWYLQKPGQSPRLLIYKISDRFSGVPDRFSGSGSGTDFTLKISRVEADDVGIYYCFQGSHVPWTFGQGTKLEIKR show?
Out: 0.032 nM
